Tested On: recombinant protein Src (Homo sapiens (Human))
Sequence (P12931 whole entry, looked up): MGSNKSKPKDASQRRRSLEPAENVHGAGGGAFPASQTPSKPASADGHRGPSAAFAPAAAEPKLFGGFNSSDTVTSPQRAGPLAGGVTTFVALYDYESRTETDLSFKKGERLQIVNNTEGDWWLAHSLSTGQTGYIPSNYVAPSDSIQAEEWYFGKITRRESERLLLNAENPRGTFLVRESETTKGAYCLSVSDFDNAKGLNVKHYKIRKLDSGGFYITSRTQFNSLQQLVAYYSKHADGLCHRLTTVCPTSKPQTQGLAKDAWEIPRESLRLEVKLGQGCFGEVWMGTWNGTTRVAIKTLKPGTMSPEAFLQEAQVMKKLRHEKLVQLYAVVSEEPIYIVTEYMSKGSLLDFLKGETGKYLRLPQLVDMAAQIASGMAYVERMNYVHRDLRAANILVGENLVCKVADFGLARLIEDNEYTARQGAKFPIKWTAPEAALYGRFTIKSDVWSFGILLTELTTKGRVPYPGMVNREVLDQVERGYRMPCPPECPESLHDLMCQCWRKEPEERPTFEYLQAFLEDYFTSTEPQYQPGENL
Method Summary: In vitro assay for inhibiting Src kinase activity (biotin-labeled TK substrate, Sa-XL 665, Cryptate-labeled antibody)
Condition Label: read-out: IC50, inhibitory activity against recombinant protein Src
pIC50: −log10 of the molar value.
# pIC50 per record follows
Measurement Label: pIC50

- CN(C)[C@H]1CCN(CCn2nc(-c3ccc(NC(=O)OC(C)(C)C)c4c3OCO4)c3c(N)ncnc32)C1: ≥ 8.00
- CN(C)C1CCN(CCn2nc(-c3ccc(NC(=O)OC4CC(F)(F)C4)c4c3OCO4)c3c(N)ncnc32)CC1: ≥ 8.00
- CN1CC(OC(=O)Nc2ccc(-c3nn(CCN4CCC(N5CCC5)CC4)c4ncnc(N)c34)c3c2OCO3)C1: ≥ 8.00
- CN1CCN(C2CCN(CCn3nc(-c4ccc(NC(=O)OC(C)(C)C)c5c4OCO5)c4c(N)ncnc43)CC2)CC1: ≥ 8.00
- CN(C1CC1)C1CCN(CCn2nc(-c3ccc(NC(=O)OC(C)(C)C)c4c3OCO4)c3c(N)ncnc32)CC1: ≥ 8.00
- CN(C)CC1CCN(CCn2nc(-c3ccc(NC(=O)OC(C)(C)C)c4c3OCO4)c3c(N)ncnc32)CC1: ≥ 8.00
- CN(C)C1CCN(CCn2nc(-c3ncc(NC(=O)OC(C)(C)C)c4c3OCO4)c3c(N)ncnc32)CC1: 7.30 to 8.00
- COc1cc(-c2nn(CCN3CCC(N(C)C4CC4)CC3)c3ncnc(N)c23)ccc1NC(=O)OC(C)(C)C: ≥ 8.00
- COCCN1CCN(CCn2nc(-c3ccc(NC(=O)OC(C)(C)C)c4c3OCO4)c3c(N)ncnc32)CC1: ≥ 8.00
- CN(C)C1CCN(CCCn2nc(-c3ccc(NC(=O)OC(C)(C)C)c4c3OCO4)c3c(N)ncnc32)CC1: ≥ 8.00
- CN(C)C1CCN(CCn2nc(-c3c(F)cc(NC(=O)OC(C)(C)C)c4c3OCO4)c3c(N)ncnc32)CC1: 7.30 to 8.00
- CN(C)CCN1CCN(CCn2nc(-c3ccc(NC(=O)OC(C)(C)C)c4c3OCO4)c3c(N)ncnc32)CC1: ≥ 8.00
- COc1cc(-c2nn(CCN3CCC(N(C)C4CC4)CC3)c3ncnc(N)c23)ccc1NC(=O)OC1(C)CC1: ≥ 8.00
- COc1cc(-c2nn(CCN3CCC(N(C)C)CC3)c3ncnc(N)c23)ccc1NC(=O)OC12CC(C1)C2: ≥ 8.00
- CC(C)(C)OC(=O)Nc1ccc(-c2nn(CCN3CCN(CCO)CC3)c3ncnc(N)c23)c2c1OCO2: ≥ 8.00
- CN(C)C1CCN(CCn2nc(-c3ccc(NC(=O)OC4COC4)c4c3OCO4)c3c(N)ncnc32)CC1: ≥ 8.00
- CC(C)OC(=O)Nc1ccc(-c2nn(CCN3CCC(N(C)C)CC3)c3ncnc(N)c23)c2c1OCO2: 7.30 to 8.00
- COc1cc(-c2nn(CCN3CCC(N(C)C)CC3)c3ncnc(N)c23)ccc1NC(=O)OC1(C)CCC1: ≥ 8.00
- CN(C)CCC1CCN(CCn2nc(-c3ccc(NC(=O)OC(C)(C)C)c4c3OCO4)c3c(N)ncnc32)CC1: ≥ 8.00
- CN(C)C1CCN(CCn2nc(-c3cnc(NC(=O)OC(C)(C)C)c4c3OCO4)c3c(N)ncnc32)CC1: 7.30 to 8.00
- COc1cc(-c2nn(CCN3CCC(N(C)C)CC3)c3ncnc(N)c23)ccc1NC(=O)OC1CC(F)(F)C1: ≥ 8.00
- CC(C)(C)OC(=O)Nc1ccc(-c2nn(CCN3CCC(N4CCOCC4)CC3)c3ncnc(N)c23)c2c1OCO2: ≥ 8.00
- CN(C)C1CCN(CCn2nc(-c3cc(F)c(NC(=O)OC(C)(C)C)c4c3OCO4)c3c(N)ncnc32)CC1: 7.30 to 8.00
- CN(C)C1CCN(CCn2nc(-c3ccc(NC(=O)OC(C)(C)C)c4c3OCO4)c3c(N)ncnc32)CC1: ≥ 8.00
- CN(C)C1CCN(CCn2nc(-c3ccc(NC(=O)OC4CCC4)c4c3OCO4)c3c(N)ncnc32)CC1: ≥ 8.00
- COc1cc(-c2nn(CCN3CCC(N(C)C4CC4)CC3)c3ncnc(N)c23)ccc1NC(=O)OC1(C)CCC1: ≥ 8.00
- CC(C)(C)OC(=O)Nc1ccc(-c2nn(CCN3CCC(N4CCCC4)CC3)c3ncnc(N)c23)c2c1OCO2: ≥ 8.00
- CN(C)C1CCN(CCn2nc(-c3ccc(NC(=O)OC4(C)CCC4)c4c3OCO4)c3c(N)ncnc32)CC1: ≥ 8.00
- CN(C)C1CCN(CCn2nc(-c3ccc(NC(=O)OC(C)(C)C)c4c3OC(F)(F)O4)c3c(N)ncnc32)CC1: ≥ 8.00

Attribution: patent US20250042904A1
